Biological target: BRM (Homo sapiens, UniProt P51531)
Construct: made in house; host or cells: High Five insect cells
Sequence (P51531 whole entry): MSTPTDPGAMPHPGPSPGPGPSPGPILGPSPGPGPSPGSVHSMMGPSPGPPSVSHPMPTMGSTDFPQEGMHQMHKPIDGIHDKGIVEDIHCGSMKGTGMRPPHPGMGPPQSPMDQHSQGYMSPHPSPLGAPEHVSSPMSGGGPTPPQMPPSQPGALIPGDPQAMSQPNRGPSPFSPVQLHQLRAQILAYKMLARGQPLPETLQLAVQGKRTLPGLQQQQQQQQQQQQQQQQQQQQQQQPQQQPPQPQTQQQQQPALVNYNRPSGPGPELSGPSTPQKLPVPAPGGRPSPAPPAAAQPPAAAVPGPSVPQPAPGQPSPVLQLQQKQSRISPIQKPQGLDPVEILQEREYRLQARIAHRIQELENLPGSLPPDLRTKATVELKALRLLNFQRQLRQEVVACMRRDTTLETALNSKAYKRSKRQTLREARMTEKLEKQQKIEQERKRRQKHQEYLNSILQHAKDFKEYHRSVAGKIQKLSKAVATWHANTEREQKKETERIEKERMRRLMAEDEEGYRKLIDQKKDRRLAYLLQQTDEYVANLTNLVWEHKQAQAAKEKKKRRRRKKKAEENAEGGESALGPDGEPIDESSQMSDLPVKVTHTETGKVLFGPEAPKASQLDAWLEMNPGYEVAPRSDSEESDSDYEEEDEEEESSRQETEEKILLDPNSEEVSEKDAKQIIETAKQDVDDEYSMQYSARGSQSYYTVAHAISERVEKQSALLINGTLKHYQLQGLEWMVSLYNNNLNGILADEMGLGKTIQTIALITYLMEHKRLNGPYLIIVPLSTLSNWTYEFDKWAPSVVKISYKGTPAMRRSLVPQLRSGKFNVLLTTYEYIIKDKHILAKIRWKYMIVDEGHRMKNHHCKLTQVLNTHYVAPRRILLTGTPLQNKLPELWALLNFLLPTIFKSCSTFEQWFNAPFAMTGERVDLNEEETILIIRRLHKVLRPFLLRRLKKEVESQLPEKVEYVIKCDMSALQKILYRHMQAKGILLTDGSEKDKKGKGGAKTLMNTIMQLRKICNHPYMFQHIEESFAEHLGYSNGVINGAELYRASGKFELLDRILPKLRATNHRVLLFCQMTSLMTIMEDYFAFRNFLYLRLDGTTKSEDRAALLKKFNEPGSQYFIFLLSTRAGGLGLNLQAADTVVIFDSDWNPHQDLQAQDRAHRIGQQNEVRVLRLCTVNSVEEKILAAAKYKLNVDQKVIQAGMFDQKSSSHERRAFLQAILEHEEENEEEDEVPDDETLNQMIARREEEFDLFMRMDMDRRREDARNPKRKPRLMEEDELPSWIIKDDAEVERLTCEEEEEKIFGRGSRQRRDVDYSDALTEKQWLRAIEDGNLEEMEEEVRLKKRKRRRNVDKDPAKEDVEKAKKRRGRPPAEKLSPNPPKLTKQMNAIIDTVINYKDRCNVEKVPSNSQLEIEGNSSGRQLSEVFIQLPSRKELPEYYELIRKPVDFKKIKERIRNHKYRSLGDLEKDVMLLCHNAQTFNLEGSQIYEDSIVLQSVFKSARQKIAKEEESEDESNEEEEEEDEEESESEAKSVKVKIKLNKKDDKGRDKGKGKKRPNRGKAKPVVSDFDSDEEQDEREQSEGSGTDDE
Test: ATPase catalytic activity of BRM, ADP-Glo in vitro biochemical assay
Details: selectivity ratio BRG1 IC50 / BRM IC50
VALUE_TYPE: Ratio* (BRG1 IC50 (μM) divided by BRM IC50 (μM))

                               smiles_entry  reading
0  COCc1ccc(C(=O)NCc2cc3nc(-c4cccc(N5C[C@@H](C)O[C@@H](C)C5)n4)ccc3cn2)cc1S(C)(=O)=O     6.45
1  O=C(NCc1cc2nc(-c3cccc(N4CCCC4)n3)ccc2cn1)c1ccc2c(c1)S(=O)(=O)CCOC2     9.02
2  O=C(NCc1cc2nc(-c3cccc(C4(F)CC(F)(F)C4)n3)ccc2cn1)c1ccc2c(c1)S(=O)(=O)CCOC2     6.33

(P) C[C@@H]1[C@@H](c2cccc(-c3ccc4cnc(CNC(=O)c5ccc6c(c5)S(=O)(=O)CCOC6)cc4n3)n2)C1(F)F
(Q) CN1CCc2ccc(-c3ccc4cnc(CNC(=O)c5ccc6c(c5)S(=O)(=O)CCOC6)cc4n3)nc21
Prompt line: Between P and Q , whose measured Ratio* (BRG1 IC50 (μM) divided by BRM IC50 (μM)) reads higher? Returns: label corresponding to the selected item.
Response line: P
(P: 13.78, Q: 8.57)

(P) O=C(NCc1cc2nc(-c3cncc(C4CC4)n3)ccc2cn1)c1cnc2c(c1)S(=O)(=O)CCCC2
(Q) COc1nn(C2COC2)cc1-c1ccc2cnc(CNC(=O)c3ccc4c(c3)S(=O)(=O)CCOC4)cc2c1
Prompt line: Problem: Given the entries P and Q , determine which has the lower reported Ratio* (BRG1 IC50 (μM) divided by BRM IC50 (μM)). # reply format: chosen label
Response line: P

----------
Target: BRM (Homo sapiens)
Construct: made in house; host or cells: High Five insect cells
Experiment: ATPase catalytic activity of BRM, ADP-Glo in vitro biochemical assay
Settings: ratio of BRG1 IC50 to BRM IC50
VALUE_TYPE: Ratio*

The cases that follow already have their Ratio* on record.
                                   compound      assayed_system  reading
0  Cc1cnc2c(c1)OCCN2c1ccc2cnc(CNC(=O)c3cc(F)c4c(c3)S(=O)(=O)CCOC4)cc2n1  BRM (Homo sapiens)    12.09
1  CC1Cc2cccnc2N(c2ccc3cnc(CNC(=O)c4ccc5c(c4)S(=O)(=O)CCOC5)cc3n2)C1 (stereo not drawn)  BRM (Homo sapiens)     2.94

(I) CO[C@H]1CCS(=O)(=O)c2cc(C(=O)NCc3cc4nc(-c5cccc(N6C[C@@H](C)O[C@@H](C)C6)n5)ccc4cn3)ccc2C1
(II) O=C(NCc1cc2nc(-c3cccc(C45COCC4C5)n3)ccc2cn1)c1ccc2c(c1)S(=O)(=O)CCOC2 (stereo not drawn)
(III) COc1cccc2c1CCN2c1ccc2cnc(CNC(=O)c3ccc4c(c3)S(=O)(=O)CCOC4)cc2n1
(IV) CO[C@H]1COc2c(-c3ccc4cnc(CNC(=O)c5ccc6c(c5)S(=O)(=O)CCOC6)cc4n3)cccc2N(C)C1
Prompt line: # rank_down: sort by Ratio*, max first Put the labels in the requested order and write them down.
Response line: II, IV, III, I

(A) COCc1nc2c(cc1C)CCCN2c1ccc2cnc(CNC(=O)c3ccc4c(c3)S(=O)(=O)CCOC4)cc2n1
(B) COCCN1CCc2cccc(-c3ccc4cnc(CNC(=O)c5ccc6c(c5)S(=O)(=O)CCOC6)cc4n3)c2C1
Prompt line: Of A and B , whose reported Ratio* is the larger number? Please respond with the label that marks your chosen entry.
Response line: A
(A: 23.08, B: 1.32)

(1) C[C@@H]1CN(c2cccc(-c3ccc4cnc(CNC(=O)c5ccc6c(c5)S(=O)(=O)CCC(C)(C)O6)cc4n3)n2)C[C@H](C)O1
(2) CN(CC1(F)COC1)c1cccc(-c2ccc3cnc(CNC(=O)c4ccc5c(c4)S(=O)(=O)CCOC5)cc3n2)n1
(3) C[C@H]1COCc2c(F)cc(C(=O)NCc3cc4nc(-c5cccc(C6CC6)n5)ccc4cn3)cc2S1(=O)=O
Prompt line: Ascending sort, Ratio*. Give the labels in the order specified.
Response line: 1, 2, 3

(I) Cc1ccc2c(c1)CCCN2c1ccc2cnc(CNC(=O)c3ccc4c(c3)S(=O)(=O)CCOC4)cc2n1
(II) COC[C@H](C)Oc1ccc2c(c1)N(c1ccc3cnc(CNC(=O)c4ccc5c(c4)S(=O)(=O)CCOC5)cc3n1)CCC2
(III) C[C@@H]1CN(c2cccc(-c3ccc4cnc(CNC(=O)c5ccc6c(c5)S(=O)(=O)C5(CC6)CC5)cc4n3)n2)C[C@H](C)O1
Prompt line: Rank ascending by Ratio*. Lab note: record answer as labels in requested order.
Response line: II, I, III
(II: 7.66, I: 12.99, III: 28.30)

Reference for the values: patent US20230416248A1
